Measured values drawn from patent US20250295799A1 for this set.

- target: human glypican-3 (GPC3) (human, UniProt P51654 25-554); also: test concentration or dose not given here
- assayMethodText: cell-based or functional assay
assayMetric: JHH-5 Internalization (MFI), Day 0 in mouse plasma

binder: H18L6_LC_G34Q mAb, v40208 (antibody, human IgG1, kappa, V domains shown, Full-size IgG1/kappa) VH: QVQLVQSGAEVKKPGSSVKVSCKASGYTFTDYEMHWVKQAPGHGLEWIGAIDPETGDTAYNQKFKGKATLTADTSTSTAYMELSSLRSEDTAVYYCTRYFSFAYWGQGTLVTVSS VL: EIVLTQSPATLSLSPGERATISCRSSQSLRHSNQNTYLQWYQQKPGQAPRLLIYKVSNRFSGVPARFSGSGSGTDFTLTISSLEPEDFAVYFCYQSKHVPYTFGGGTKVEIKR
observedResult: 10500
--
binder: H18L6_LC_G34K mAb, v40207 (antibody, human IgG1, kappa, V domains shown, Full-size IgG1/kappa) VH: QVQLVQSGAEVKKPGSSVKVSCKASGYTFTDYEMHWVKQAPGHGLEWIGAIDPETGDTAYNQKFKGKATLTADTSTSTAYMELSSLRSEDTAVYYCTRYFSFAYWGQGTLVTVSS VL: EIVLTQSPATLSLSPGERATISCRSSQSLRHSNKNTYLQWYQQKPGQAPRLLIYKVSNRFSGVPARFSGSGSGTDFTLTISSLEPEDFAVYFCYQSKHVPYTFGGGTKVEIKR
observedResult: 12800
--
binder: H18L6_LC_G34R mAb, v40206 (antibody, human IgG1, kappa, V domains shown, Full-size IgG1/kappa) VH: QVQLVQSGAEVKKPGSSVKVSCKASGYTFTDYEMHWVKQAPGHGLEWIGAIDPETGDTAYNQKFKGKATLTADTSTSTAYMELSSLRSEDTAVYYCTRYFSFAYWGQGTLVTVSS VL: EIVLTQSPATLSLSPGERATISCRSSQSLRHSNRNTYLQWYQQKPGQAPRLLIYKVSNRFSGVPARFSGSGSGTDFTLTISSLEPEDFAVYFCYQSKHVPYTFGGGTKVEIKR
observedResult: 13300
